FYI, the data here is from ChEMBL document CHEMBL4177544.

# testDescription: Selectivity index, ratio of CC50 for cytotoxic activity against BALB/c mouse T-lymphocytes to IC50 for inhibition of ConA-induced cell proliferation of BALB/c mouse T-lymphocytes
# Type: toxicity
# experimentalSetup: read-out: Ratio CC50/IC50
metricName: selectivity ratio

Exercise: What selectivity ratio value was documented for this molecule, COC1=C[C@@H](C)O[C@@H](O[C@H]2CC[C@@]3(C)C(=CC[C@@H]4[C@@H]3CC[C@@]3(C)[C@H]4CC[C@]3(O)[C@H](C)O[C@H]3C[C@H]4OCO[C@@]5(C[C@@H](OC)[C@H](O[C@H]6C[C@H](O)[C@H](O[C@H]7C[C@@H](O)[C@H](O[C@H]8C[C@H](OC)[C@H](O[C@@H]9O[C@H](C)[C@@H](OC(C)=O)[C@H](OC)[C@H]9O)[C@@H](C)O8)[C@@H](C)O7)[C@@H](C)O6)[C@@H](C)O5)O[C@@H]4[C@@H](C)O3)C2)C1=O ?
Key: 8.4
